system-tested: UniProt:Q14004
Sequence (Q14004 whole entry, species assumed, one chain of several): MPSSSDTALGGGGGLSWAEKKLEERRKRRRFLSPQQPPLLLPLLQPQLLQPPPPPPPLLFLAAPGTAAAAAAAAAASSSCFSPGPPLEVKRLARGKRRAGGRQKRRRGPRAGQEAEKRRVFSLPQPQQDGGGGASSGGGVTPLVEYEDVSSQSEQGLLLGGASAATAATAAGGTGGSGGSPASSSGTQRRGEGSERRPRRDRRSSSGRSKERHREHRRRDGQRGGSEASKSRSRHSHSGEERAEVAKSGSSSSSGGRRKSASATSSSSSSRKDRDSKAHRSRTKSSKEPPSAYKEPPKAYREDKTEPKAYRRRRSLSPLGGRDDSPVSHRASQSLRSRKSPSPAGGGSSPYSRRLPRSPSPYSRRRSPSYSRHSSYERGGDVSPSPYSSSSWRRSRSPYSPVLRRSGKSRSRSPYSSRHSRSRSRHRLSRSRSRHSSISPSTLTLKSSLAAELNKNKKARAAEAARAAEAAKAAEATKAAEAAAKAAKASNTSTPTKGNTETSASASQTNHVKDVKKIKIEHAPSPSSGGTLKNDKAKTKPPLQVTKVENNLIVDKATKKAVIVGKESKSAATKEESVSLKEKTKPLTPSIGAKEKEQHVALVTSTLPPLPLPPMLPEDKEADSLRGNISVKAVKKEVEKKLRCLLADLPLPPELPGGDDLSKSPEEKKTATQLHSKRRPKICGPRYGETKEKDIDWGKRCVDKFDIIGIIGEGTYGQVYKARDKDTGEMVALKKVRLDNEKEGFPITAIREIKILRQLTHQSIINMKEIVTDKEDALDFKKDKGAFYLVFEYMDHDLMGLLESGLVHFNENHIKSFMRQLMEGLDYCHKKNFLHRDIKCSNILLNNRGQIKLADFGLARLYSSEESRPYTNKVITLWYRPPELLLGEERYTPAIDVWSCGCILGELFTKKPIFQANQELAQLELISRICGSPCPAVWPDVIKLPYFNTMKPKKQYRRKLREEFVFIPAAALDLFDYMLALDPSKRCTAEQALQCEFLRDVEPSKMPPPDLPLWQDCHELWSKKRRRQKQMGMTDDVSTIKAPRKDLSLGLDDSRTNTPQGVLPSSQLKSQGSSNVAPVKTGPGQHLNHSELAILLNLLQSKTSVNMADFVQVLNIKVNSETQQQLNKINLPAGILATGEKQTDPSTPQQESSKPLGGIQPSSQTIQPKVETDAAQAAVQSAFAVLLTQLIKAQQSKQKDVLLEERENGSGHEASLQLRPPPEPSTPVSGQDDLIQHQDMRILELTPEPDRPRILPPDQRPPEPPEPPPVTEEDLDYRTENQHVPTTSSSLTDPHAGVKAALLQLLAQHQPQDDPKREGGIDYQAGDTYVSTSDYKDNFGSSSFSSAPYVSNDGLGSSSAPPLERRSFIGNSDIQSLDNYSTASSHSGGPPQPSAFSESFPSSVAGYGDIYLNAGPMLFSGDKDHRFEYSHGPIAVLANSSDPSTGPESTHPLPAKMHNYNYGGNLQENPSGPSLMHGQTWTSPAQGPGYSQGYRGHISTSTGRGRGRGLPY
measurement-notes: CDK13 kinase inhibitory activity assay (33P-ATP filter binding)
Format: biochemical
quantity: IC50

smiles-representation	quantity	assay-value
Fc1ccc2nc(CNc3cc(N4C5CCC4COC5)nn4c(C(F)(F)F)cnc34)[nH]c2c1F	IC50	< 100 nM
NC(=O)N1CCN(c2cc(NCc3nc4cc(Cl)c(Cl)cc4[nH]3)c3ncc(C(F)(F)F)n3n2)CC1	IC50	< 100 nM
O[C@H]1CCN(c2cc(NCc3nc4cc(Cl)c(Cl)cc4[nH]3)c3ncc(C(F)(F)F)n3n2)C1	IC50	< 100 nM
Fc1ccc2nc(CNc3cc(N4CCOCC4)nn4c(I)cnc34)[nH]c2c1F	IC50	> 500 nM

---

System: MKN45 cells
measurement-notes: Gastric cancer cell proliferation inhibitory activity (CellTiter Glo), MKN45
Type: cell-based
condition-label: 72 hours, relative IC50
pIC50: −log10 of the molar value.

compound	pIC50
N.N.[Cl][Pt][Cl] [Cisplatin, reference compound]	< 6.00

---

As shown below, each of these compounds has a reported pIC50 value.
system-tested: CDK12 (Homo sapiens, UniProt Q9NYV4)
Sequence (Q9NYV4 whole entry, species assumed): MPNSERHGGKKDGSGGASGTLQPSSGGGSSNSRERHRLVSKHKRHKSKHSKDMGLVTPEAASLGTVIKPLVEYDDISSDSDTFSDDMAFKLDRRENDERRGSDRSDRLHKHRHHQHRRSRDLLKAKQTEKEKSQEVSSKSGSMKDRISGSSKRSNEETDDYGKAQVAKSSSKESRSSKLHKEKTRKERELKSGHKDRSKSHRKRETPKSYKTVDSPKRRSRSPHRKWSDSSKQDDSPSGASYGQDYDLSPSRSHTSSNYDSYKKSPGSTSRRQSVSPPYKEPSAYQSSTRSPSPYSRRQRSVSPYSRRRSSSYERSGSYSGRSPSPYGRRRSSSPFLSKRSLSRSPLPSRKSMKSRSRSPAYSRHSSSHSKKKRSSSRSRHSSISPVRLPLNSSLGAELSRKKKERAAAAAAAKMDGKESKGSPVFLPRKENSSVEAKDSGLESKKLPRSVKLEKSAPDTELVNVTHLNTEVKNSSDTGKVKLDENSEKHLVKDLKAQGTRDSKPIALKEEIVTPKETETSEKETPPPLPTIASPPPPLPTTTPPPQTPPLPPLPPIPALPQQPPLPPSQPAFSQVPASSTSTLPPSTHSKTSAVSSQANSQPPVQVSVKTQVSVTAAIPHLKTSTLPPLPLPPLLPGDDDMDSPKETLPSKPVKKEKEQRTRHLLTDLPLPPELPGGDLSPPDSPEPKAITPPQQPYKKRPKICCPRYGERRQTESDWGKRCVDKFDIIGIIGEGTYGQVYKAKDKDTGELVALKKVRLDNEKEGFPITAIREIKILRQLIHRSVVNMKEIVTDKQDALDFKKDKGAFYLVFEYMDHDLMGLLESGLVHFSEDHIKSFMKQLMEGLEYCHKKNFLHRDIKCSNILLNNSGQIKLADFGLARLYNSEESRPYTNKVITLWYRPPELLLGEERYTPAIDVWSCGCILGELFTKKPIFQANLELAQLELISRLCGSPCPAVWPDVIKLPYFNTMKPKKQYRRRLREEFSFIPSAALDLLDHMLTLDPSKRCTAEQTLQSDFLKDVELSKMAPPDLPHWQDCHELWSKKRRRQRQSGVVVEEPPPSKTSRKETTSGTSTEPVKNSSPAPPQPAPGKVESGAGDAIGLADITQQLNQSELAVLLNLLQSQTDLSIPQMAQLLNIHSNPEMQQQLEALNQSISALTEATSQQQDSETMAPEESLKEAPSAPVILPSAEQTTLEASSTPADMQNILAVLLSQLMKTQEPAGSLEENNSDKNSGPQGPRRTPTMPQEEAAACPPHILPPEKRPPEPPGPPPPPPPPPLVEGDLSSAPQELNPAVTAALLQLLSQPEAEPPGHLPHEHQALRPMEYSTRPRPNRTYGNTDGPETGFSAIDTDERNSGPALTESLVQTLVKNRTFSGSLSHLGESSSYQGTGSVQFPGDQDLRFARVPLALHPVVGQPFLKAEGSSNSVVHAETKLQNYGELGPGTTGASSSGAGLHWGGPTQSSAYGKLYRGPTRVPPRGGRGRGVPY
Sequence (O75909 whole entry partner, species assumed): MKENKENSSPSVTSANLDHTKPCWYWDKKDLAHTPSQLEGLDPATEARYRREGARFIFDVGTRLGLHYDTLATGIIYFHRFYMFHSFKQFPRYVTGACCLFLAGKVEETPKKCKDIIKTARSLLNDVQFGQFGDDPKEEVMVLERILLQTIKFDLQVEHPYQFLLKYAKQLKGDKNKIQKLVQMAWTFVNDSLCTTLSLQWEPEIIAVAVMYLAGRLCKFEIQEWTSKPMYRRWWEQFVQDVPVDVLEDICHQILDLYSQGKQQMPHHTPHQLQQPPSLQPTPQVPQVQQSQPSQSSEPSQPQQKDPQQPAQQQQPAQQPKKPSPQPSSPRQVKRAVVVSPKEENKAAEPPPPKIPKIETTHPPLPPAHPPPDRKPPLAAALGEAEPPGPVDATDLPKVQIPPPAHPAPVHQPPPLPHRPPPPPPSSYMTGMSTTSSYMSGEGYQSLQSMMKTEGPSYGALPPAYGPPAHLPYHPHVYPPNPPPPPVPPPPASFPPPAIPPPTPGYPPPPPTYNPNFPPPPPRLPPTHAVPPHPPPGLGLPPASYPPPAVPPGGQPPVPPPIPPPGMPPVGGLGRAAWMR
measurement-notes: CDK12 kinase inhibitory activity assay (33P-ATP filter binding)
Assay type: biochemical
condition-label: kinase reaction 120 minutes, 33P-gamma-ATP; read-out: CDK12 IC50
pIC50: −log10 of the molar value.

smiles-representation	system-tested	pIC50
CN1CC2(C1)CN(c1cc(NCc3nc4cc(Cl)c(Cl)cc4[nH]3)c3ncc(C(F)(F)F)n3n1)C2	CDK12 (Homo sapiens, UniProt Q9NYV4)	> 7.00
OC1CN(c2cc(NCc3nc4ccc(F)c(F)c4[nH]3)c3ncc(C(F)(F)F)n3n2)C1	CDK12 (Homo sapiens, UniProt Q9NYV4)	> 7.00
NC1CCN(c2cc(NCc3nc4ccc(F)c(F)c4[nH]3)c3ncc(C(F)(F)F)n3n2)CC1	CDK12 (Homo sapiens, UniProt Q9NYV4)	> 7.00
Cc1cc2[nH]c(CNc3cc(N4CCOCC4)nn4c(C(F)(F)F)cnc34)nc2cc1C(F)(F)F	CDK12 (Homo sapiens, UniProt Q9NYV4)	> 7.00
NC1CCN(c2cc(NCc3nc4cc(F)c(F)cc4[nH]3)c3ncc(C(F)(F)F)n3n2)CC1	CDK12 (Homo sapiens, UniProt Q9NYV4)	> 7.00
FC(F)(F)c1cnc2c(NCc3nc4cc(Cl)c(Cl)cc4s3)cc(N3CCOCC3)nn12	CDK12 (Homo sapiens, UniProt Q9NYV4)	< 6.30
FC(F)(F)c1cc2nc(CNc3cc(N4CCOCC4)nn4c(C(F)(F)F)cnc34)[nH]c2cc1C(F)(F)F	CDK12 (Homo sapiens, UniProt Q9NYV4)	< 6.30
Fc1ccc2nc(CNc3cc(N4CCOCC4)nn4c(CC(F)(F)F)cnc34)[nH]c2c1F	CDK12 (Homo sapiens, UniProt Q9NYV4)	6.30 to 7.00
Fc1ccc2nc(CNc3cc(N4CCNCC4)nn4c(C(F)(F)F)cnc34)[nH]c2c1F	CDK12 (Homo sapiens, UniProt Q9NYV4)	> 7.00
CC(C)(O)C1CN(c2cc(NCc3nc4cc(Cl)c(Cl)cc4[nH]3)c3ncc(C(F)(F)F)n3n2)C1	CDK12 (Homo sapiens, UniProt Q9NYV4)	< 6.30
Fc1ccc2[nH]c(CNc3cc(N4CCOCC4)nn4c(C(F)(F)F)cnc34)nc2c1	CDK12 (Homo sapiens, UniProt Q9NYV4)	> 7.00
Nc1ncc(-c2cc(NCc3nc4ccc(F)c(F)c4[nH]3)c3ncc(C#CC4CC4)n3n2)cn1	CDK12 (Homo sapiens, UniProt Q9NYV4)	< 6.30
O[C@@H]1CCN(c2cc(NCc3nc4cc(Cl)c(Cl)cc4[nH]3)c3ncc(C(F)(F)F)n3n2)C1	CDK12 (Homo sapiens, UniProt Q9NYV4)	6.30 to 7.00
Fc1cccc2[nH]c(CNc3cc(N4CCOCC4)nn4c(C(F)(F)F)cnc34)nc12	CDK12 (Homo sapiens, UniProt Q9NYV4)	> 7.00
Nc1ncc(-c2cc(NCc3nc4cc(F)c(F)cc4[nH]3)c3ncc(C(F)(F)F)n3n2)cn1	CDK12 (Homo sapiens, UniProt Q9NYV4)	> 7.00
CN1C2CCC1CN(c1cc(NCc3nc4cc(Cl)c(Cl)cc4[nH]3)c3ncc(C(F)(F)F)n3n1)C2	CDK12 (Homo sapiens, UniProt Q9NYV4)	> 7.00

---

Entries and their pIC50
system-tested: CDK12 (Homo sapiens)
measurement-notes: Cellular CDK12 inhibitory activity assay (Ser2 phosphorylation of RNA polymerase II subunit B1 CTD in MDA-MB-231 cells)
Assay type: cell-based
Design: using MDA-MB-231 breast cancer cells; endogenous in cells; host or cells: MDA-MB-231
condition-label: MDA-MB-231 cells, 6 hours treatment; read-out: pRpbl CTD S2 IC50
pIC50: −log10 of the molar value.
quantity: pIC50

compound	quantity	assay-value
Fc1ccc2nc(CNc3cc(N4CCOCC4)nn4c(C5CC5)cnc34)[nH]c2c1F	pIC50	5.52 to 6.52
Nc1ncc(-c2cc(NCc3nc4cc(F)c(F)cc4[nH]3)c3ncc(C(F)(F)F)n3n2)cn1	pIC50	> 6.52
OC1CN(c2cc(NCc3nc4cc(Cl)c(Cl)cc4[nH]3)c3ncc(C(F)(F)F)n3n2)C1	pIC50	> 6.52
FC(F)(F)c1cnc2c(NCc3nc4cc(Cl)c(Cl)cc4[nH]3)cc(N3CC4CCC3CO4)nn12 (stereo not shown)	pIC50	5.52 to 6.52
Fc1ccc2nc(CNc3cc(N4C5CCC4COC5)nn4c(C(F)(F)F)cnc34)[nH]c2c1F	pIC50	> 6.52
NC1CCN(c2cc(NCc3nc4cc(F)c(F)cc4[nH]3)c3ncc(C(F)(F)F)n3n2)CC1	pIC50	> 6.52
FC(F)(F)c1cnc2c(NCc3cn4ncccc4n3)cc(N3CCOCC3)nn12	pIC50	< 5.52
FC(F)(F)c1cnc2c(NCc3nc4cc(Cl)c(Cl)cc4[nH]3)cc(N3CC4CCC(C3)O4)nn12	pIC50	5.52 to 6.52
OC1CC2(C1)CN(c1cc(NCc3nc4cc(Cl)c(Cl)cc4[nH]3)c3ncc(C(F)(F)F)n3n1)C2	pIC50	> 6.52
Fc1cc2nc(CNc3cc(N4CCOCC4)nn4c(C(F)(F)F)cnc34)[nH]c2cc1F	pIC50	> 6.52
Fc1ccc2nc(CNc3cc(N4CCC4)nn4c(C(F)(F)F)cnc34)[nH]c2c1F	pIC50	5.52 to 6.52
Cc1cc2nc(CNc3cc(N4CCOCC4)nn4c(C(F)(F)F)cnc34)[nH]c2cc1C	pIC50	> 6.52
N#CC1CN(c2cc(NCc3nc4cc(Cl)c(Cl)cc4[nH]3)c3ncc(C(F)(F)F)n3n2)C1	pIC50	> 6.52
OCC1CN(c2cc(NCc3nc4cc(Cl)c(Cl)cc4[nH]3)c3ncc(C(F)(F)F)n3n2)C1	pIC50	5.52 to 6.52
Cc1cc2[nH]c(CNc3cc(N4CCOCC4)nn4c(C(F)(F)F)cnc34)nc2cc1C(F)(F)F	pIC50	> 6.52
Fc1ccc2[nH]c(CNc3cc(N4CCOCC4)nn4c(C(F)(F)F)cnc34)nc2c1	pIC50	> 6.52

---

system-tested: UniProtKB Q9NYV4
measurement-notes: CDK12 kinase inhibitory activity assay (33P-ATP filter binding)
Format: biochemical

compound	IC50
Fc1ccc2nc(CNc3cc(N4CCOCC4)nn4c(I)cnc34)[nH]c2c1F	> 500 nM
CC1(O)CC2CCC(C1)N2c1cc(NCc2nc3cc(Cl)c(Cl)cc3[nH]2)c2ncc(C(F)(F)F)n2n1 (stereo not drawn)	> 500 nM
Fc1ccc2nc(CNc3cc(N4CCOCC4)nn4c(Cl)cnc34)[nH]c2c1F	> 500 nM
N#CC1CN(c2cc(NCc3nc4cc(Cl)c(Cl)cc4[nH]3)c3ncc(C(F)(F)F)n3n2)C1	100 to 500 nM
Fc1ccc2nc(CNc3cc(N4CCOCC4)nn4c(C5CC5)cnc34)[nH]c2c1F	100 to 500 nM
Fc1ccc2nc(CNc3cc(N4CC5CCC(C4)O5)nn4c(C(F)(F)F)cnc34)[nH]c2c1F	< 100 nM
Fc1ccc2nc(CNc3cc(N4CC5CCC4CO5)nn4c(C(F)(F)F)cnc34)[nH]c2c1F (stereo not drawn)	< 100 nM
Nc1ncc(-c2cc(NCc3nc4cc(Cl)c(Cl)cc4[nH]3)c3ncc(C(F)(F)F)n3n2)cn1	< 100 nM
FC(F)(F)c1cnc2c(NCc3nc4cc(Cl)c(Cl)cc4[nH]3)cc(N3CC4CCC(C3)O4)nn12	100 to 500 nM

---

Test system: HCT15
measurement-notes: Colorectal cancer cell proliferation inhibitory activity, HCT15
Format: cell-based
condition-label: Homo sapiens, HCT-15; 72 hours, Cell Counting Kit-8, relative IC50
Below, each of the compounds is paired with its reported IC50 value.
quantity: IC50

smiles-representation	system-tested	quantity	assay-value
Nc1ncc(-c2cc(NCc3nc4cc(Cl)c(Cl)cc4[nH]3)c3ncc(C(F)(F)F)n3n2)cn1	HCT15	IC50	≤ 200 nM
CN1CCN(c2cc(NCc3nc4ccc(F)c(F)c4[nH]3)c3ncc(C(F)(F)F)n3n2)CC1	HCT15	IC50	≤ 200 nM
